TESTED_ON: human Nav1.5 channels stably expressed in HEK 293 cells (Homo sapiens)
Construct: expressed in transfected cells
Sequence (Q14524 whole entry): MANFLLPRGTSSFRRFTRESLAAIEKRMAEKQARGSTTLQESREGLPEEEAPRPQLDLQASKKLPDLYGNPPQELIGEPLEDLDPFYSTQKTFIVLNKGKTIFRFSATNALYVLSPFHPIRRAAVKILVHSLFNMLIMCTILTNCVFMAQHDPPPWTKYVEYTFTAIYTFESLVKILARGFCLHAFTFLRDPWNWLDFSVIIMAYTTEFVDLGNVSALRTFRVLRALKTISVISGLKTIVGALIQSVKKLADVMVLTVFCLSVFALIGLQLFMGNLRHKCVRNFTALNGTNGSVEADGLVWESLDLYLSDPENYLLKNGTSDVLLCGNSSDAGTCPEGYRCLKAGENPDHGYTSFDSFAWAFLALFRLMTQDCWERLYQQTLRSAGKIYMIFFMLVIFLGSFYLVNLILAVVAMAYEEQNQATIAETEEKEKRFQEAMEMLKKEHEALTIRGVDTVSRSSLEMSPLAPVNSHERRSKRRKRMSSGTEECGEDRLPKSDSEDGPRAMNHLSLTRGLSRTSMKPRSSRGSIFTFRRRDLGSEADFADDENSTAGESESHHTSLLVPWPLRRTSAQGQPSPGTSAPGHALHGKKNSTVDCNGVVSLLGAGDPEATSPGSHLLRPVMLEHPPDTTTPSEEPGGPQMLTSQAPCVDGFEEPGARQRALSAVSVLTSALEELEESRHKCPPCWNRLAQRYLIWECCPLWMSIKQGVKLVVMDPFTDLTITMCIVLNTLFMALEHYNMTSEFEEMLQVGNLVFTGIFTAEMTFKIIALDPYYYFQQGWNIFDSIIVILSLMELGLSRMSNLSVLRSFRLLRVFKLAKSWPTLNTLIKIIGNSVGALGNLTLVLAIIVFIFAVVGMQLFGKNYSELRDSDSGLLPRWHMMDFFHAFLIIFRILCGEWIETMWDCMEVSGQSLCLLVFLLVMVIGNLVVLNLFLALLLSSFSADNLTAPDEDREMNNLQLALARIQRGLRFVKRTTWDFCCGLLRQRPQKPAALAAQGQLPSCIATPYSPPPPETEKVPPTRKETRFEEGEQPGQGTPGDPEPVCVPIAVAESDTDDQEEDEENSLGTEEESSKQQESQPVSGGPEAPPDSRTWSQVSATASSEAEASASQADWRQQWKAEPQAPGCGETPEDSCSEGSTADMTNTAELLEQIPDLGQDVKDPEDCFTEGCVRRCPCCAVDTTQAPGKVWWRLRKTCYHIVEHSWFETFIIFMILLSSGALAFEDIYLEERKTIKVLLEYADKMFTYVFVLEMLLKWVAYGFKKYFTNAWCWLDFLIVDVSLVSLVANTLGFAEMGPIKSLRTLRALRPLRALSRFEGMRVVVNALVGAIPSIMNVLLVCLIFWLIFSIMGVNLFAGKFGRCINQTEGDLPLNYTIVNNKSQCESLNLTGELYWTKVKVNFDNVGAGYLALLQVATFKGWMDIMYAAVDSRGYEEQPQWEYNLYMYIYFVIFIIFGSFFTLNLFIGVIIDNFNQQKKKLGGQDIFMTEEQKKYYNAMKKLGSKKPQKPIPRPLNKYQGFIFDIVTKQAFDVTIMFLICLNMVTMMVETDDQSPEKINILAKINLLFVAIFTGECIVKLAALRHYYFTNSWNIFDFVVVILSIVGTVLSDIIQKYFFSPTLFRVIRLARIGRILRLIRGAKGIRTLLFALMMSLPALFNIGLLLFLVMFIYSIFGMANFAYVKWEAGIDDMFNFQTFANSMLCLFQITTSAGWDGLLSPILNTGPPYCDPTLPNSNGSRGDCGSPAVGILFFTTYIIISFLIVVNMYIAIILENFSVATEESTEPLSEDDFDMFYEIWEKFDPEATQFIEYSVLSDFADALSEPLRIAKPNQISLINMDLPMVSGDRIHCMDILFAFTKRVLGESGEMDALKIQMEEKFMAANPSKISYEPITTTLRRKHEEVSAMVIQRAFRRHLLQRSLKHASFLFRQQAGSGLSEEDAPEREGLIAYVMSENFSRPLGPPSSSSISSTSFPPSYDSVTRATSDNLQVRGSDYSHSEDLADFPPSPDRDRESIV
ASSAY_TEXT: PatchXpress 7000 automated patch-clamp, sodium current
Assay type: cell-based
MEASUREMENT_PARAMETERS: selectivity over Nav1.5
# ratio of Nav 1.5:Nav 1.7 potency, determined by PatchXpress measurement annotations
ENDPOINT_LABEL: ratio of Nav 1.5:Nav 1.7 potency, determined by PatchXpress measurement

compound="O=c1oc2cc(S(=O)(=O)Nc3ncns3)ccc2n1Cc1cccc(-c2ccc3c(c2)CNCC3)c1 [Compound 3-12]" inequality_sign== assay_value=55
compound="C[C@H](c1cccc2cncn12)n1c(=O)oc2cc(S(=O)(=O)Nc3nccs3)c(F)cc21 [Compound 43-18]" inequality_sign== assay_value=139
compound="O=c1oc2cc(S(=O)(=O)Nc3nccs3)c(F)cc2n1Cc1cccc(Br)c1 [Compound 43-6]" inequality_sign== assay_value=80
compound="NC1Cc2cccc(Cn3c(=O)oc4cc(S(=O)(=O)Nc5ncns5)ccc43)c2C1 (racemic) [Compound 23-9]" inequality_sign== assay_value=167
compound="C[C@H](c1ccccc1C#CCN)n1c(=O)oc2cc(S(=O)(=O)Nc3ncns3)c(F)cc21 [Compound 17-20]" inequality_sign== assay_value=2324
compound="CN1CCc2cccc(Cn3c(=O)oc4cc(S(=O)(=O)Nc5ncns5)ccc43)c2C1 [Compound 6-1]" inequality_sign=> assay_value=35
compound="C[C@H](c1ccccc1C1=CCNCCC1)n1c(=O)oc2cc(S(=O)(=O)Nc3ncns3)c(F)cc21 [Compound 16-6]" inequality_sign== assay_value=1692

====

TESTED_ON: human Nav1.5 channels stably expressed in HEK 293 cells (Homo sapiens)
Construct: expressed in transfected cells
ASSAY_TEXT: IonWorks Quattro automated patch-clamp, sodium current, inactivated state block
Format: cell-based
MEASUREMENT_PARAMETERS: selectivity over Nav1.5
ENDPOINT_LABEL: ratio of Nav 1.5:Nav 1.7 potency, determined by IonWorks measurement

molecule="O=c1oc2cc(S(=O)(=O)Nc3ncns3)ccc2n1Cc1ccc(Cl)cc1 [Compound 1-13]" tested_on="human Nav1.5 channels stably expressed in HEK 293 cells (Homo sapiens)" assay_value="> 34"
molecule="CN1CCc2cccc(Cn3c(=O)oc4cc(S(=O)(=O)Nc5ncns5)ccc43)c2C1 [Compound 6-1]" tested_on="human Nav1.5 channels stably expressed in HEK 293 cells (Homo sapiens)" assay_value=88
molecule="O=c1oc2cc(S(=O)(=O)Nc3ncns3)c(F)cc2n1C(c1ccccc1)C1CC1 (stereo not drawn) [Compound 13-5]" tested_on="human Nav1.5 channels stably expressed in HEK 293 cells (Homo sapiens)" assay_value="> 300"
molecule="CCN1CCc2cccc(Cn3c(=O)oc4cc(S(=O)(=O)Nc5ncns5)ccc43)c2C1 [Compound 6-2]" tested_on="human Nav1.5 channels stably expressed in HEK 293 cells (Homo sapiens)" assay_value="> 98"
molecule="CC(=O)N1CCc2cccc(Cn3c(=O)oc4cc(S(=O)(=O)Nc5ncns5)ccc43)c2C1 [Compound 9-1]" tested_on="human Nav1.5 channels stably expressed in HEK 293 cells (Homo sapiens)" assay_value=35
molecule="NC/C=C/c1ccccc1Cn1c(=O)oc2cc(S(=O)(=O)Nc3ncns3)ccc21 [Compound 3-3]" tested_on="human Nav1.5 channels stably expressed in HEK 293 cells (Homo sapiens)" assay_value=65
molecule="O=c1oc2cc(S(=O)(=O)Nc3ncns3)ccc2n1Cc1cccc(-c2cccc3c2CCNC3)c1 [Compound 3-14]" tested_on="human Nav1.5 channels stably expressed in HEK 293 cells (Homo sapiens)" assay_value=35
molecule="C[C@H](c1cccc2c1CNCC2)n1c(=O)oc2cc(S(=O)(=O)Nc3ncns3)ccc21 [Compound 4-4]" tested_on="human Nav1.5 channels stably expressed in HEK 293 cells (Homo sapiens)" assay_value=4494
molecule="CC(c1ccccn1)n1c(=O)oc2cc(S(=O)(=O)Nc3ncns3)c(F)cc21 (stereo not drawn) [Compound 13-6]" tested_on="human Nav1.5 channels stably expressed in HEK 293 cells (Homo sapiens)" assay_value="> 511"

====

# IC50 annotations
TESTED_ON: human Nav1.7 channels stably expressed in HEK 293 cells (Homo sapiens, UniProt Q15858)
Construct: expressed in transfected cells
Sequence (Q15858 whole entry): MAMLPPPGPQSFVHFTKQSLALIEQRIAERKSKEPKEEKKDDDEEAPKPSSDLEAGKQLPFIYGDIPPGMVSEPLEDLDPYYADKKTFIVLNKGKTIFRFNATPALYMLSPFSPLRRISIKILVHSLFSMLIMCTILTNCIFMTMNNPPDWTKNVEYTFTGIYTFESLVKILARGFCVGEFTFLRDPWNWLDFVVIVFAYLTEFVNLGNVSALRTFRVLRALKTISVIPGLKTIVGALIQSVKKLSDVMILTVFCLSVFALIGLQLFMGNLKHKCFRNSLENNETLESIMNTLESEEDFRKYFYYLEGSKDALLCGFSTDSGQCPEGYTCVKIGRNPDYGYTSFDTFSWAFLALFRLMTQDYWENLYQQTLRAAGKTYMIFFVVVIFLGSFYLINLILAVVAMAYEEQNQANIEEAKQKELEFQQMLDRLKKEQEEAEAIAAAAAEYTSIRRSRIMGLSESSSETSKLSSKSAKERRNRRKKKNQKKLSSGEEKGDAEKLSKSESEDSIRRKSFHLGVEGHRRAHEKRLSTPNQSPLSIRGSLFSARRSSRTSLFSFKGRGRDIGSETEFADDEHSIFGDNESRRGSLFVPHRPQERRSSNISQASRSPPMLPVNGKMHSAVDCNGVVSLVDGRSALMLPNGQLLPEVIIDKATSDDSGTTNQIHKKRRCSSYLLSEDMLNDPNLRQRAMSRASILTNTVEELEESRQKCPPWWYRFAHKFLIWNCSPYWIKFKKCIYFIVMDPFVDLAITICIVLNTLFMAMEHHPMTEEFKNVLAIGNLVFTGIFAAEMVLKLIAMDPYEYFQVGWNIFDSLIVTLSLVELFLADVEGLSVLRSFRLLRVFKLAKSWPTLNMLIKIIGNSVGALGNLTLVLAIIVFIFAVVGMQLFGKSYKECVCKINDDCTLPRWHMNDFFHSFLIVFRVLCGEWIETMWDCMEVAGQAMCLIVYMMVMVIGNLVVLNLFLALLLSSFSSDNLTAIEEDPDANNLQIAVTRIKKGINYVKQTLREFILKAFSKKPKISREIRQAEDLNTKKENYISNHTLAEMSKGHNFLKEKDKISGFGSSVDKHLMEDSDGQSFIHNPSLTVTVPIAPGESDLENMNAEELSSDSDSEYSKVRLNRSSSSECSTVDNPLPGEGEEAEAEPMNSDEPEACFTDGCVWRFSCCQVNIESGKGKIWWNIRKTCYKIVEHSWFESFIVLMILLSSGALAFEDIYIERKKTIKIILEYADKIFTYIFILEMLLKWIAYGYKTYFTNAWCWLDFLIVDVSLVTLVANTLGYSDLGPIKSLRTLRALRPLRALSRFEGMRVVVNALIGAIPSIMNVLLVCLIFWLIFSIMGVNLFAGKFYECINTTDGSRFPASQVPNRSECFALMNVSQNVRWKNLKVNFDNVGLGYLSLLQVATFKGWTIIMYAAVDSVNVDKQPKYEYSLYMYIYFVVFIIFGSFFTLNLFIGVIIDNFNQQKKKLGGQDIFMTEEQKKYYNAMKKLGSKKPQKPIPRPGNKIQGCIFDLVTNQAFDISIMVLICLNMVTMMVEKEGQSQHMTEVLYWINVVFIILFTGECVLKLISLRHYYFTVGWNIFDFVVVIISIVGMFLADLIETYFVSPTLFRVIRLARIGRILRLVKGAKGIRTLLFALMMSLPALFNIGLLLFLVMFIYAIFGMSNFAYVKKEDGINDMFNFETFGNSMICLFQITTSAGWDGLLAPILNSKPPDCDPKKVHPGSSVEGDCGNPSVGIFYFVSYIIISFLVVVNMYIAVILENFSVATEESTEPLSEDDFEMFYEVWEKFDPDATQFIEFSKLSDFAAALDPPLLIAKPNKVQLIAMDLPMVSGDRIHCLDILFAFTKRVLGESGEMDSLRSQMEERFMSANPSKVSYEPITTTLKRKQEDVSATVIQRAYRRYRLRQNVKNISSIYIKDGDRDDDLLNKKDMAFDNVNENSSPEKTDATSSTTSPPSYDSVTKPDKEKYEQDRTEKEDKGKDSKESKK
ASSAY_TEXT: PatchXpress 7000 automated patch-clamp, sodium current
Type: cell-based
MEASUREMENT_PARAMETERS: 22° C., read-out: potency for the Nav 1.7 sodium ion channel (as measured by PatchXpress)
ENDPOINT_LABEL: IC50 (µM)

molecule="O=c1oc2cc(S(=O)(=O)Nc3ncns3)c(F)cc2n1C1CCOc2ccccc21 (stereo not drawn)" assay_value=0.221
molecule=C[C@H](c1ccccc1C1(O)CNC1)n1c(=O)oc2cc(S(=O)(=O)Nc3nccs3)c(F)cc21 assay_value=0.061
molecule=O=C(C1CC1)N1CCc2cccc(Cn3c(=O)oc4cc(S(=O)(=O)Nc5ncns5)ccc43)c2C1 assay_value=0.598
molecule="C[C@H](c1cccc2c1CC(NS(C)(=O)=O)CC2)n1c(=O)oc2cc(S(=O)(=O)Nc3ncns3)c(F)cc21 (stereo partly drawn)" assay_value=0.027
molecule="CC1(C)CC(n2c(=O)oc3cc(S(=O)(=O)Nc4ncns4)c(F)cc32)c2ccccc2O1 (stereo not drawn)" assay_value=0.218
molecule=Cc1cc2c(cc1S(=O)(=O)Nc1ncns1)oc(=O)n2[C@H](C)c1ccccc1 assay_value=0.043
molecule="O=c1oc2cc(S(=O)(=O)Nc3ncns3)c(F)cc2n1Cc1cccc2c1CC(NCCO)CC2 (racemic)" assay_value=0.026
molecule="CC(c1cccc(-c2ccnn2C)c1)n1c(=O)oc2cc(S(=O)(=O)Nc3ncns3)c(F)cc21 (stereo not drawn)" assay_value=0.063
molecule="O=c1oc2cc(S(=O)(=O)Nc3nccs3)c(F)cc2n1C1CC2(CCC2)Oc2ccc(F)cc21 (stereo not drawn)" assay_value=0.041
molecule=C[C@@H](c1ccccc1C1CNC1)n1c(=O)oc2cc(S(=O)(=O)Nc3nccs3)c(F)cc21 assay_value=0.621
molecule=C[C@H](c1ccccc1C#CCO)n1c(=O)oc2cc(S(=O)(=O)Nc3ncns3)c(F)cc21 assay_value=0.058
molecule="O=c1oc2cc(S(=O)(=O)Nc3nccs3)c(F)cc2n1C1CCCc2c(F)cccc21 (stereo not drawn)" assay_value=0.071
molecule=C[C@H](c1cccc2c1CNCC2)n1c(=O)oc2cc(S(=O)(=O)Nc3ncns3)c(F)cc21 assay_value=0.026
molecule="O=c1oc2cc(S(=O)(=O)Nc3ncns3)c(F)cc2n1Cc1cccc2c1CC(N1CCC(F)(F)C1)CC2 (racemic)" assay_value=0.278
molecule=C[C@@H](c1cccc2cncn12)n1c(=O)oc2cc(S(=O)(=O)Nc3nccs3)c(F)cc21 assay_value=0.621
